Kindly supply the reported brightness (405 nm) values for the records listed here.
Method notes: Brightness of hydroporphyrin monomers vs. porphyrin-hydroporphyrin dyads at 405 nm excitation
Format: physicochemical
Details: product of molar absorption coefficient at 405 nm and fluorescence quantum yield, toluene, room temperature; in M⁻¹cm⁻¹

Recorded brightness (405 nm), per entry:
COC(=O)c1ccc(-c2c3nc(cc4[nH]c(cc5nc(cc6[nH]c2cc6-c2ccc(CNC(=O)c6ccc(C7=C8C=CC(=N8)C=c8ccc9[n]8[Zn][n]8c(ccc87)C=C7C=CC(=N7)C=9)cc6)cc2)CC5(C)C)cc4-c2ccccc2)C=C3)cc1 [P2-C1, methyl ester]; 87,748
COC(=O)c1ccc(-c2c3nc(cc4[nH]c(cc5nc(cc6[nH]c2cc6C#Cc2ccc(-c6c7nc(cc8ccc(cc9nc(cc%10ccc6[nH]%10)C=C9)[nH]8)C=C7)cc2)CC5(C)C)cc4C#Cc2ccc(-c4c5nc(cc6ccc(cc7nc(cc8ccc4[nH]8)C=C7)[nH]6)C=C5)cc2)C=C3)cc1 [Dyad P1-C6]; 80,567
COC(=O)c1c(C#Cc2ccc(-c3c4nc(cc5ccc(cc6nc(cc7ccc3[nH]7)C=C6)[nH]5)C=C4)cc2)c2cc3nc(c(OC)c4[nH]c(cc5nc(cc1[nH]2)CC5(C)C)c(C#Cc1ccc(-c2c5nc(cc6ccc(cc7nc(cc8ccc2[nH]8)C=C7)[nH]6)C=C5)cc1)c4C(=O)OC)CC3(C)C [Dyad P1-BC2]; 60,845

For the next question, use this compound.
Ask: Which measured brightness (405 nm) value corresponds to COc1c2nc(cc3ccc([nH]3)c(-c3ccc(-c4c5nc(cc6ccc(cc7nc(cc8ccc4[nH]8)C=C7)[nH]6)C=C5)cc3)c3nc(cc4ccc1[nH]4)C(C)(C)C3)C(C)(C)C2 [Dyad P11-BC3] ?
Result: 19,871
